conditions: parabacteroides johnsonii, 12 h, 2 µM
Description: The drug is tested on Parabacteroides johnsonii strain: DSM18315 for biotransformation. The drug concentrations were measured before and after a 12-h incubation by liquid-chromatography-coupled mass spectrometry (LC–MS)
reported metric: Bacterial Biotransformation

Worked examples follow.
molecule	Bacterial Biotransformation
Fc1ccc([C@@H]2CCNC[C@H]2COc2ccc3c(c2)OCO3)cc1	Compound metabolized
CC(=O)OCC(=O)NCCCOc1cccc(CN2CCCCC2)c1 [ROXATIDINE ACETATE]	Compound metabolized
OCCN1CCN(CCCN2c3ccccc3Sc3ccc(C(F)(F)F)cc32)CC1	Compound metabolized
CN[C@H]1CC[C@@H](c2ccc(Cl)c(Cl)c2)c2ccccc21	Compound NOT metabolized
O=C(O)c1cc(/N=N/c2ccc(S(=O)(=O)Nc3ccccn3)cc2)ccc1O	Compound metabolized

(Q) Please give the measured Bacterial Biotransformation for this molecule: `O=C1[C@H](CC[C@H](O)c2ccc(F)cc2)[C@@H](c2ccc(O)cc2)N1c1ccc(F)cc1`
(A) Compound NOT metabolized

(Q) Also CC(C)NCC(O)COc1ccc(COCCOC(C)C)cc1.CC(C)NCC(O)COc1ccc(COCCOC(C)C)cc1.O=C(O)/C=C/C(=O)O (centres undefined) [BISOPROLOL FUMARATE] , if possible.
(A) Compound NOT metabolized

(Q) Also CC(Oc1c(Cl)cccc1Cl)C1=NCCN1 (centres undefined) , if possible.
(A) Compound metabolized

(Q) Also O=C1C(CC[S+]([O-])c2ccccc2)C(=O)N(c2ccccc2)N1c1ccccc1 (centres undefined) , if possible.
(A) Compound NOT metabolized

(Q) Also C[C@@H](CO)NC(=O)[C@@H]1C=C2c3cccc4[nH]cc(c34)C[C@H]2N(C)C1.O=C(O)/C=C\C(=O)O [ERGONOVINE MALEATE] , if possible.
(A) Compound metabolized

(Q) Also C[N+]12CCC(CC1)C(OC(=O)C(O)(c1ccccc1)c1ccccc1)C2.[Br-] (centres undefined) [CLIDINIUM BROMIDE] , if possible.
(A) Compound NOT metabolized

(Q) Also `C[C@@H]1CC[C@H]2[C@@H](C)C(=O)O[C@@H]3O[C@@]4(C)CC[C@@H]1[C@]32OO4` , if possible.
(A) Compound metabolized

(Q) Also `N#Cc1ccc2c(c1)N(CCCN1CCC(O)CC1)c1ccccc1S2` , if possible.
(A) Compound metabolized

---

assay: The drug is tested on Bacteroides ovatus strain: ATCC8483 for biotransformation. The drug concentrations were measured before and after a 12-h incubation by liquid-chromatography-coupled mass spectrometry (LC–MS); settings: 2 µM
reported metric: Bacterial Biotransformation

Worked examples follow.
molecule	result
CN1C(=O)CC(C)(c2ccccc2)C1=O (stereo not drawn) [METHSUXIMIDE]	Compound NOT metabolized
CCCCC(=O)O[C@]1(C(=O)CO)[C@@H](C)C[C@H]2[C@@H]3CCC4=CC(=O)C=C[C@]4(C)[C@@]3(F)[C@@H](O)C[C@@]21C [BETAMETHASONE VALERATE]	Compound NOT metabolized
CCc1nn(CCCN2CCN(c3cccc(Cl)c3)CC2)c(=O)n1CCOc1ccccc1 [NEFAZODONE]	Compound NOT metabolized
CC(C)(C)NC(=O)[C@H]1CC[C@H]2[C@@H]3CC[C@H]4NC(=O)C=C[C@]4(C)[C@H]3CC[C@]12C [FINASTERIDE]	Compound NOT metabolized

(Q) Please give the measured Bacterial Biotransformation for this molecule: CS(=O)(=O)O.OC(CCN1CCCCC1)(c1ccccc1)c1ccccc1 [PRIDINOL METHANESULFONATE]
(A) Compound NOT metabolized

(Q) Also CN(C)C(=O)Oc1cc(OC(=O)N(C)C)cc(C(O)CNC(C)(C)C)c1 (stereo not drawn) [BAMBUTEROL] , if possible.
(A) Compound NOT metabolized

(Q) Also Cc1ccccc1C(OCCN(C)C)c1ccccc1.O=C(O)CC(O)(CC(=O)O)C(=O)O (stereo not drawn) [ORPHENADRINE CITRATE] , if possible.
(A) Compound NOT metabolized

(Q) Also CC(C)(C)NC[C@H](O)COc1nsnc1N1CCOCC1.O=C(O)/C=C\C(=O)O [TIMOLOL MALEATE] , if possible.
(A) Compound NOT metabolized

---

experiment: The drug is tested on Bacteroides coprophilus strain: DSM18228 for biotransformation. The drug concentrations were measured before and after a 12-h incubation by liquid-chromatography-coupled mass spectrometry (LC–MS); details: 2 µM
reported metric: Bacterial Biotransformation

compound	result
CC(=O)OCC(=O)[C@@]1(OC(C)=O)[C@@H](C)C[C@H]2[C@@H]3C[C@H](F)C4=CC(=O)C=C[C@]4(C)[C@@]3(F)[C@@H](O)C[C@@]21C [DIFLORASONE DIACETATE]	Compound NOT metabolized
c1ccc([C@H]2CN3CCSC3=N2)cc1 [LEVAMISOLE]	Compound metabolized
CC(C)N(CCC(C(N)=O)(c1ccccc1)c1ccccn1)C(C)C.O=P(O)(O)O (stereo not drawn) [DISOPYRAMIDE PHOSPHATE]	Compound NOT metabolized
CC(C)NCC(O)COc1ccc(COCCOC(C)C)cc1.CC(C)NCC(O)COc1ccc(COCCOC(C)C)cc1.O=C(O)/C=C/C(=O)O (stereo not drawn) [BISOPROLOL FUMARATE]	Compound NOT metabolized
CN(C/C=C/C#CC(C)(C)C)Cc1cccc2ccccc12 [TERBINAFINE]	Compound NOT metabolized

(Q) Please give the measured Bacterial Biotransformation for this compound: CNC(=C[N+](=O)[O-])NCCSCc1ccc(CN(C)C)o1 [RANITIDINE]
(A) Compound metabolized

(Q) Also Cc1ccc(S(=O)(=O)NC(=O)NN2CC3CCCC3C2)cc1 (stereo not drawn) [GLICLAZIDE] , if possible.
(A) Compound NOT metabolized

(Q) Also CCN(C(C)=O)c1cccc(-c2ccnc3c(C#N)cnn23)c1 [ZALEPLON] , if possible.
(A) Compound NOT metabolized

---

assay: The drug is tested on the gut metagenome community of MV05 with ENA study accession number: PRJEB31790 and ENA sample accession number: SAMEA5537486 for biotransformation. The drug concentrations were measured over 9 timepoints collected between 0 and 24 hours of incubation by liquid-chromatography-coupled mass spectrometry (LC–MS); assay type: ADME; set-up: dose 2 uM, timepoint 0, 1, 2, 4, 6, 8, 12, 18, 24 hours; details: 2 µM
reported metric: Bacterial Biotransformation

molecule	result
COc1ccc([C@@H]2Sc3ccccc3N(CCN(C)C)C(=O)[C@@H]2OC(C)=O)cc1	Compound NOT metabolized
CC(=O)OCC(CCn1cnc2cnc(N)nc21)COC(C)=O	Compound metabolized
C[C@@H]1C[C@H]2[C@@H]3CCC4=CC(=O)C=C[C@]4(C)[C@@]3(F)[C@@H](O)C[C@]2(C)[C@@]1(O)C(=O)CO	Compound NOT metabolized
C#C[C@]1(OC(C)=O)CC[C@H]2[C@@H]3CCC4=CC(=O)CC[C@@H]4[C@H]3CC[C@@]21C [NORETHINDRONE ACETATE]	Compound metabolized

---

assay: The drug is tested on Ruminococcus gnavus strain: ATCC29149 for biotransformation. The drug concentrations were measured before and after a 12-h incubation by liquid-chromatography-coupled mass spectrometry (LC–MS); conditions: mediterraneibacter gnavus, 2 µM
reported metric: Bacterial Biotransformation

compound	Bacterial Biotransformation
CCc1oc2ccccc2c1C(=O)c1cc(Br)c(O)c(Br)c1	Compound NOT metabolized
Cc1ccc(/C(=C\CN2CCCC2)c2ccccn2)cc1	Compound NOT metabolized
CC#CCn1c(N2CCC[C@@H](N)C2)nc2c1c(=O)n(Cc1nc(C)c3ccccc3n1)c(=O)n2C	Compound NOT metabolized
CC(C)c1nc(N(C)S(C)(=O)=O)nc(-c2ccc(F)cc2)c1/C=C/[C@@H](O)C[C@@H](O)CC(=O)[O-].CC(C)c1nc(N(C)S(C)(=O)=O)nc(-c2ccc(F)cc2)c1/C=C/[C@@H](O)C[C@@H](O)CC(=O)[O-].[Ca+2]	Compound NOT metabolized
CS(=O)(=O)O.O.O.O.O=C1Cc2cc(CCN3CCN(c4nsc5ccccc45)CC3)c(Cl)cc2N1 [ZIPRASIDONE MESYLATE]	Compound NOT metabolized

Please turn your attention to the following entry.
(Q) Please give the measured Bacterial Biotransformation for this compound: `OCCOCCN1CCN(C2=Nc3ccccc3Sc3ccccc32)CC1`
(A) Compound NOT metabolized

---

test: The drug is tested on Anaerococcus hydrogenalis strain: DSM7454 for biotransformation. The drug concentrations were measured before and after a 12-h incubation by liquid-chromatography-coupled mass spectrometry (LC–MS); details: 2 µM

compound	Bacterial Biotransformation
COc1ccccc1N1CCN(CC(O)COc2cccc3ccccc23)CC1 (centres undefined)	Compound NOT metabolized
CC(C)(C)N.CCC[C@H](N[C@@H](C)C(=O)N1[C@H](C(=O)O)C[C@@H]2CCCC[C@@H]21)C(=O)OCC	Compound NOT metabolized
CN1CCOC(c2ccccc2)c2ccccc2C1 (centres undefined)	Compound NOT metabolized

---

conditions: bacteroides stercoris, 12 h, 2 µM
Description: The drug is tested on Bacteroides stercoris strain: ATCC43183 for biotransformation. The drug concentrations were measured before and after a 12-h incubation by liquid-chromatography-coupled mass spectrometry (LC–MS)
reported metric: Bacterial Biotransformation

Worked examples follow.
molecule	result
COc1ccc(CN2CCNCC2)c(OC)c1OC.Cl.Cl [TRIMETAZIDINE DIHYDROCHLORIDE]	Compound metabolized
COc1ccnc(C[S+]([O-])c2nc3ccc(OC(F)F)cc3[nH]2)c1OC (configuration not stated)	Compound metabolized
CC(C)NCC(O)COc1ccc(CCOCC2CC2)cc1 (configuration not stated)	Compound NOT metabolized
CC(=O)SCC(Cc1ccccc1)C(=O)NCC(=O)OCc1ccccc1 (configuration not stated)	Compound metabolized
COc1cc(C(=O)NCc2ccc(OCCN(C)C)cc2)cc(OC)c1OC [TRIMETHOBENZAMIDE]	Compound NOT metabolized
Cc1ccc(/C(=C\CN2CCCC2)c2ccccn2)cc1	Compound NOT metabolized
CC(C)(C(=O)O)c1ccc(C(O)CCCN2CCC(C(O)(c3ccccc3)c3ccccc3)CC2)cc1 (configuration not stated) [FEXOFENADINE]	Compound NOT metabolized
CCOc1ccccc1OCCN[C@H](C)Cc1ccc(OC)c(S(N)(=O)=O)c1.Cl [TAMSULOSIN HYDROCHLORIDE]	Compound NOT metabolized

(Q) Please give the measured Bacterial Biotransformation for this molecule: `CCCCC(=O)N(Cc1ccc(-c2ccccc2-c2nnn[nH]2)cc1)[C@H](C(=O)O)C(C)C`
(A) Compound NOT metabolized

(Q) Also CN1CCC(=C2c3ccccc3CC(=O)c3sccc32)CC1.O=C(O)/C=C/C(=O)O [KETOTIFEN FUMARATE] , if possible.
(A) Compound NOT metabolized

(Q) Also `CC(C)c1nc(N(C)S(C)(=O)=O)nc(-c2ccc(F)cc2)c1/C=C/[C@@H](O)C[C@@H](O)CC(=O)[O-].CC(C)c1nc(N(C)S(C)(=O)=O)nc(-c2ccc(F)cc2)c1/C=C/[C@@H](O)C[C@@H](O)CC(=O)[O-].[Ca+2]` , if possible.
(A) Compound NOT metabolized

(Q) Also Br.CN(C)CCCC1(c2ccc(F)cc2)OCc2cc(C#N)ccc21 (configuration not stated) [CITALOPRAM HYDROBROMIDE] , if possible.
(A) Compound NOT metabolized

(Q) Also CC12CC3CC(C)(C1)CC(N)(C3)C2 [MEMANTINE] , if possible.
(A) Compound NOT metabolized

(Q) Also `O=C(CCCN1CCC2(CC1)C(=O)NCN2c1ccccc1)c1ccc(F)cc1` , if possible.
(A) Compound NOT metabolized

(Q) Also CC(C(=O)O)c1ccc2c(c1)Cc1cccnc1O2 (configuration not stated) , if possible.
(A) Compound metabolized

(Q) Also CNCCC(Oc1ccc(C(F)(F)F)cc1)c1ccccc1 (configuration not stated) , if possible.
(A) Compound metabolized

(Q) Also CC(=O)Nc1ccc(OC(C)=O)cc1 [DIACETAMATE] , if possible.
(A) Compound metabolized
